These measurements were taken from paper PMC11409709.

# assayOverview: ABTS radical scavenging
parameter: ABTS scavenging

molecule="CCOP(=O)(OCC)C(Nc1ncc(Cl)cc1Cl)c1ccc(O)cc1 (stereo not drawn)" experimentalvalue="weak capacity"
molecule="CCOP(=O)(OCC)C(Nc1ncc(Cl)cc1Cl)c1ccccc1OC (stereo not drawn)" experimentalvalue="weak capacity"
molecule="CCOP(=O)(OCC)C(Nc1ncc(Cl)cc1Cl)c1ccc(O)c(OC)c1 (stereo not drawn)" experimentalvalue="moderate impact"
molecule="CCOP(=O)(OCC)C(Nc1ncc(Cl)cc1Cl)c1ccsc1 (stereo not drawn)" experimentalvalue="moderate impact"
molecule="CCOP(=O)(OCC)C(Nc1ncc(Cl)cc1Cl)c1ccc(N(C)C)cc1 (stereo not drawn)" experimentalvalue="weak capacity"
molecule="CCOP(=O)(OCC)C(Nc1ncc(Cl)cc1Cl)c1ccccc1O (stereo not drawn)" experimentalvalue="weak capacity"
